Molecular target: CXCR3 (Homo sapiens (Human))
Assay: Receptor internalization assay
Format: cell-based
Settings: human whole blood; final CXCL10 concentration 9 nM; 30 min 37° C.; CXCR3 cell surface expression on CD3 positive cells, flow cytometer; read-out: Internalization IC50
quantity measured: IC50 (nM)

(P) Cc1cccc2oc(=O)n(CC(=O)N3CCN(c4scnc4-c4nc5ccccc5[nH]4)C[C@H]3C)c12
(Q) C[C@@H]1CN(c2sc(C(F)(F)F)nc2-c2nc3cc(C4(O)CC4)ccc3[nH]2)CCN1C(=O)Cn1cnc2cccnc21
Could you tell me which of these two has the smaller IC50 figure? First: P Second: Q Label of pick, please. Q

(1) CCc1ccc2nc(-c3ncsc3N3CCN(C(=O)Cn4cnc5cccnc54)[C@H](C)C3)[nH]c2c1
(2) C[C@@H]1CN(c2scnc2-c2nc3ccc(Cl)cc3[nH]2)CCN1C(=O)Cn1cnc2cccnc21
// which entry reports the smaller IC50, 1 or 2 ? Please indicate the selected item by its label. 1

(A) C[C@@H]1CN(c2sc(C(F)(F)F)nc2-c2nc3ccccc3[nH]2)CCN1C(=O)CN1C(=O)C(F)(F)c2ccccc21
(B) C[C@@H]1CN(c2scnc2-c2nc3ccccc3[nH]2)CCN1C(=O)Cn1cc(Cl)c2cccnc21
(C) CC(O)c1nc(-c2nc3ccccc3[nH]2)c(N2CCN(C(=O)Cn3ccc4cccnc43)CC2)s1 (racemic)
(D) C[C@@H]1CN(c2scnc2-c2nc3ccccc3[nH]2)CCN1C(=O)CN1C(=O)C(F)(F)c2ccccc21
Reorder the items by IC50, least to greatest. In plain terms: list the labels in the order you were asked to. A, B, D, C

====

Target: human CXCR3A (Homo sapiens (Human))
Experiment: FLIPR assay
Settings: CHO-K1 cells expressing the human CXCR3A coupled to Galpha(16); CXCL10 agonist 20 nM; Fluo-4-AM fluorescence; mean values if determined several times
pIC50: −log10 of the molar value.
quantity measured: pIC50

- molecule: "C[C@@H]1CN(c2sc(C(F)(F)F)nc2-c2nc3ccc(CN(C)C)cc3[nH]2)CCN1C(=O)Cn1cccn1"
  system: "human CXCR3A (Homo sapiens (Human))"
  pIC50: 7.57
- molecule: "Cc1ccc2[nH]c(-c3ncsc3N3CCN(C(=O)Cn4c(=O)n(C)c5ccccc54)CC3)nc2c1"
  system: "human CXCR3A (Homo sapiens (Human))"
  pIC50: 8.70
- molecule: "C[C@@H]1CN(c2scnc2-c2nc3ccccc3n2C)CCN1C(=O)Cn1cnc2cccnc21"
  system: "human CXCR3A (Homo sapiens (Human))"
  pIC50: 8.05
- molecule: "COCCOc1ccc2[nH]c(-c3ncsc3N3CCN(C(=O)Cn4c(=O)n(C)c5ccccc54)CC3)nc2c1"
  system: "human CXCR3A (Homo sapiens (Human))"
  pIC50: 7.85
- molecule: "Cc1c(Cl)ccc2nc(-c3ncsc3N3CCN(C(=O)Cn4c(=O)n(C)c5ccccc54)CC3)[nH]c12"
  system: "human CXCR3A (Homo sapiens (Human))"
  pIC50: 8.40
- molecule: "C[C@@H]1CN(c2scnc2-c2nc3ccc(Cl)cc3[nH]2)CCN1C(=O)Cn1cnc2cccnc21"
  system: "human CXCR3A (Homo sapiens (Human))"
  pIC50: 9.00
- molecule: "O=C(Cn1cnc2cccnc21)N1CCCN(c2scnc2-c2nc3ccccc3[nH]2)CC1"
  system: "human CXCR3A (Homo sapiens (Human))"
  pIC50: 7.32
- molecule: "C[C@@H]1CN(c2sc(C(F)(F)F)nc2-c2nc3ccccc3[nH]2)CCN1C(=O)Cn1cnc2cccnc21"
  system: "human CXCR3A (Homo sapiens (Human))"
  pIC50: 9.00

(1) O=C(Cn1ncc2ccccc21)N1CCN(c2scnc2-c2nc3ccccc3[nH]2)CC1
(2) C[C@@H]1CN(c2scnc2-c2nc3ccccc3[nH]2)CCN1C(=O)Cc1c[nH]c2ccc(Cl)cc12
For the pair 1 and 2 , which entry has the numerically smaller recorded pIC50? Answer = label. 2
(2: 6.31, 1: 7.80)

(I) C[C@@H]1CN(c2scnc2-c2nc3ccccc3[nH]2)CCN1C(=O)Cn1cnc2cccnc21
(II) C[C@@H]1CN(c2scnc2-c2nc3ccc(Cl)cc3[nH]2)CCN1C(=O)Cn1ccc2cccnc21
(III) C[C@@H]1CN(c2scnc2-c2nc3ccccc3[nH]2)CCN1C(=O)Cc1cccc2ccccc12
(IV) O=C(Cn1cnc2cccnc21)N1CCN(c2ncsc2-c2nc3ccccc3[nH]2)CC1 [compound 114, reference compound]
Ordering: ascending pIC50. Would you mind listing the labels in the order asked for? IV, I, III, II
(IV: 5.52, I: 8.22, III: 8.52, II: 9.70)

====

Biological target: CXCR3 (Homo sapiens (Human), UniProt P49682)
Sequence (P49682 whole entry): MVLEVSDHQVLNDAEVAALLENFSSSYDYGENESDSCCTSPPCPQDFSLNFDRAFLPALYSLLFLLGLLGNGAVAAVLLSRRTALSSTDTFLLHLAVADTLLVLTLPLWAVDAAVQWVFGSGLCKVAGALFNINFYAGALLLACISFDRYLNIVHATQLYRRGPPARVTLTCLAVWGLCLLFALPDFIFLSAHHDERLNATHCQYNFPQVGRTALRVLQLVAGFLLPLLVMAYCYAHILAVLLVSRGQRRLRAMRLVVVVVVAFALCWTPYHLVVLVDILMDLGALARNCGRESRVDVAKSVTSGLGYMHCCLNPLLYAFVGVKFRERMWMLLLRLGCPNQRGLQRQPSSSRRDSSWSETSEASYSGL
Assay: Receptor internalization assay
Type: cell-based
quantity measured: IC50 (nM)
Give the value in nM but do not write nM after it.

Returns the measured IC50 for the input molecule. Input: C[C@@H]1CN(c2sc(C(F)(F)F)nc2-c2nc3cc(Cl)ccc3[nH]2)CCN1C(=O)Cn1cnc2cccnc21 39

====

Molecular target: human CXCR3A (Homo sapiens (Human), UniProt P49682)
Sequence (P49682 whole entry): as above
Test: FLIPR assay
Conditions: CHO-K1 cells expressing the human CXCR3A coupled to Galpha(16); CXCL10 agonist 20 nM; Fluo-4-AM fluorescence; mean values if determined several times
quantity measured: IC50 (nM)

(A) C[C@@H]1CN(c2scnc2-c2nc3c(C(F)(F)F)cccc3[nH]2)CCN1C(=O)Cn1cnc2cccnc21
(B) O=C(CN1CCCc2ccccc21)N1CCN(c2scnc2-c2nc3ccccc3[nH]2)CC1
(C) COCCn1c(-c2nc(C(F)(F)F)sc2N2CCN(C(=O)Cn3cccn3)[C@H](C)C2)nc2ccccc21
Please rank everything listed above by IC50, with the minimum value first. Respond with an ordered listing of the labels, as requested. A, C, B
(A: 4 nM, C: 37 nM, B: 89 nM)

(a) O=C(CN1CCOc2ccccc21)N1CCN(c2scnc2-c2nc3ccccc3[nH]2)CC1
(b) Cc1ccc2onc(CC(=O)N3CCN(c4scnc4-c4nc5ccccc5[nH]4)C[C@H]3C)c2c1
Which numeric IC50 is bigger, that of a or that of b ? Please indicate the selected item by its label. a

====

Biological target: human CXCR3A (Homo sapiens (Human), UniProt P49682)
Assay: FLIPR assay
Conditions: CHO-K1 cells expressing the human CXCR3A coupled to Galpha(16); CXCL10 agonist 20 nM; Fluo-4-AM fluorescence; mean values if determined several times
quantity measured: IC50 (nM)

- smiles structure: "Cn1c(=O)n(CC(=O)N2CCN(c3scnc3-c3nc4ccc(CO)cc4[nH]3)CC2)c2ccccc21"
  IC50, nM: 10
- smiles structure: "O=C(Cc1cn2nc(Cl)ccc2n1)N1CCN(c2scnc2-c2nc3ccccc3[nH]2)CC1"
  IC50, nM: 392
- smiles structure: "C[C@@H]1CN(c2scnc2-c2nc3cc(S(C)(=O)=O)ccc3[nH]2)CCN1C(=O)Cn1ccc2cccnc21"
  IC50, nM: 3

(I) Cn1c(=O)n(CC(=O)N2CCN(c3scnc3-c3nc4c(O)cccc4[nH]3)CC2)c2ccccc21
(II) Cc1cc(C)n(CC(=O)N2CCN(c3sc(C(F)(F)F)nc3-c3nc4ccccc4[nH]3)C[C@H]2C)n1
# returns the entry with the larger IC50; inputs I and II Please identify the chosen entry by its label. I

(I) C[C@@H]1CN(c2sc(C(F)(F)F)nc2-c2nc3cccnc3[nH]2)CCN1C(=O)Cn1cnc2cccnc21
(II) O=C(Cn1c(C(F)(F)F)nc2ccccc21)N1CCN(c2scnc2-c2nc3ccccc3[nH]2)CC1
(III) COc1ccc2ccn(CC(=O)N3CCN(c4scnc4-c4nc5ccccc5[nH]4)CC3)c2n1
(IV) C[C@@H]1CN(c2sc(Br)nc2-c2nc3ccccc3[nH]2)CCN1C(=O)Cn1cnc2cccnc21
(V) Cc1nc(C)n(CC(=O)N2CCN(c3sc(C(F)(F)F)nc3-c3nc4cc(CCN)ccc4[nH]3)C[C@H]2C)n1
Descending sort on IC50 required. Write the labels out in the order the request specifies. II, III, IV, I, V

(a) C[C@@H]1CN(c2scnc2-c2nc3cc(Cl)ccc3[nH]2)CCN1C(=O)CN1CCc2ccccc21
(b) C[C@@H]1CN(c2scnc2-c2nc3ccccc3[nH]2)CCN1C(=O)CN1C(=O)C(C)(C)c2ccccc21
Hello, I am sorting some records. Could you say if a or b has the smaller IC50 value? Let me know the label of the one you choose. b
(b: 4 nM, a: 11 nM)

(a) C[C@@H]1CN(c2scnc2-c2nc3ccccc3[nH]2)CCN1C(=O)Cc1ccc2nccnc2c1
(b) C[C@H]1CN(c2scnc2-c2nc3ccccc3[nH]2)CCN1C(=O)Cn1cnc2cccnc21
Dear colleague, could you let me know whether a or b has the lower recorded IC50? Thanks. Could you answer with the label of the item you picked? b
(b: 18 nM, a: 42 nM)
